# Study system: EPHB2 (UniProt P29323)
# Sequence (P29323 whole entry, looked up): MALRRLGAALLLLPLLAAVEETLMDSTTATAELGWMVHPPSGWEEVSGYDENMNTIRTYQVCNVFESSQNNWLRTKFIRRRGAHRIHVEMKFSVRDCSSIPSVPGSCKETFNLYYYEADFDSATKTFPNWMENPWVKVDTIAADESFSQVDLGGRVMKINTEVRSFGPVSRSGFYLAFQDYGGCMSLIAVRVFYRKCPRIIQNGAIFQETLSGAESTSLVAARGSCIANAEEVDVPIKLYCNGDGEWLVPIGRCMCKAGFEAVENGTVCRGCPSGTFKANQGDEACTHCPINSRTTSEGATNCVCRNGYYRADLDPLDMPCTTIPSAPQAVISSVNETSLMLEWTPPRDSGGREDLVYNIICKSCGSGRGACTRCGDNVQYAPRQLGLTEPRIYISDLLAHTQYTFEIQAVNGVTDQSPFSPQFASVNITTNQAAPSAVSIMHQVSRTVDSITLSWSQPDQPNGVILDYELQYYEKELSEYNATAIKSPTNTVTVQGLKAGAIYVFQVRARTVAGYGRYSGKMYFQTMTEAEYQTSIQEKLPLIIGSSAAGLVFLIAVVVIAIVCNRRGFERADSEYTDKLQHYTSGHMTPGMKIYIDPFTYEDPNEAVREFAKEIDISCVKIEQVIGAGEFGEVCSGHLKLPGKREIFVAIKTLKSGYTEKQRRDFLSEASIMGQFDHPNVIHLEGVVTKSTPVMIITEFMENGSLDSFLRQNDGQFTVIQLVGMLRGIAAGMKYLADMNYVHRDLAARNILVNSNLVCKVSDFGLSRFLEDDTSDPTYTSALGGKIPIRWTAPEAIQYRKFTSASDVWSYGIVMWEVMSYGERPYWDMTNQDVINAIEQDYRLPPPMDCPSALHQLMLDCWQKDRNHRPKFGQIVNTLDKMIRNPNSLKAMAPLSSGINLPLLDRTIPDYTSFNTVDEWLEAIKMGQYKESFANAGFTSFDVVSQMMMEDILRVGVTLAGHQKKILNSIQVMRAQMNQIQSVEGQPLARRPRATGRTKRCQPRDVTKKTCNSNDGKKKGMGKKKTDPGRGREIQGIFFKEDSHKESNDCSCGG
# Assay info: phosphorylation enrichment, bacterial display (enrichment ratio); higher = better substrate or ligand; peptides without Tyr show the background;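 note: 11-residue human phosphosite peptides and single-mutation variants displayed on the E. coli surface, counted by deep sequencing, each peptide's frequency after selection divided by its frequency in the unselected input library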;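 note: frequency after pTyr selection over input frequency; kinase dosed for 20-30% of maximal phosphorylation in three min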
# phosphorylation enrichment binned as bottom range = under 0.6, center range = from 0.6 up to 0.8, top range = 0.8 and over

Study these solved cases before continuing.
{"Sequence": "GVLKEYVVKVL [CPS1_Y529_G530V]", "Answer label": "bottom range"}
{"Sequence": "DEEEEYEFMNR [ERBB3_Y1197_D1194E_YF]", "Answer label": "center range"}
{"Sequence": "RPSELYYSKIG [SMG1_Y2253]", "Answer label": "top range"}
{"Sequence": "RNYDTYTAGLS [RHBDD1_Y264]", "Answer label": "top range"}
{"Sequence": "RSLLQYGGSAN [ANK1_Y624]", "Answer label": "center range"}

input: For MYDKEYYSVHN [MET_Y1234] , which phosphorylation enrichment bin applies?
output: top range

input: For CSPLLYRVIMS [OR8D4_Y132] , which phosphorylation enrichment bin applies?
output: center range

---

# Study system: FGFR3 (UniProt P22607)
# Sequence (P22607 whole entry, looked up): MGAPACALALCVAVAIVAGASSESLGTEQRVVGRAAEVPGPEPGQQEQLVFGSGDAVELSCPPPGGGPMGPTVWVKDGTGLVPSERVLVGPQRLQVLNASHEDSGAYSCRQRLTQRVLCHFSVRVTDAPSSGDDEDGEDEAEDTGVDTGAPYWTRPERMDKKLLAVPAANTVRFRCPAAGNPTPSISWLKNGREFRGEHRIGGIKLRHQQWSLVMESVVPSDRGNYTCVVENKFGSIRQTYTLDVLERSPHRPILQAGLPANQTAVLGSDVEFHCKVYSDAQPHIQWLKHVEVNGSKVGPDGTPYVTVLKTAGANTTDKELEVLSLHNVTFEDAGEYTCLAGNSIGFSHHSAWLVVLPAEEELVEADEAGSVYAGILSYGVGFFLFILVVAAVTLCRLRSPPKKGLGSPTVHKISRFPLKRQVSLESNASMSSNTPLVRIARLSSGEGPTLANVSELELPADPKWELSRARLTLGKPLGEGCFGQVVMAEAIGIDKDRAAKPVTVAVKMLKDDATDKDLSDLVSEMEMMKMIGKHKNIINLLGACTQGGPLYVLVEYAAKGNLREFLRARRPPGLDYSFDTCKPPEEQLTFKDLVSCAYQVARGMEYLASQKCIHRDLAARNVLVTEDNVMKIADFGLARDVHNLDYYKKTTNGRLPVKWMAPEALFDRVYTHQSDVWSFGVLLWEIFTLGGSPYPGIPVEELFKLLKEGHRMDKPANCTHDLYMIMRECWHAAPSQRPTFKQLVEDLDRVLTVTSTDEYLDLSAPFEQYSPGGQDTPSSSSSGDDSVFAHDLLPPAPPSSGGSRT
# Assay info: phosphorylation enrichment, bacterial display (enrichment ratio); higher = better substrate or ligand; peptides without Tyr show the background
Can you tell me phosphorylation enrichment for the items I'm about to list?
Numbers only.

These solved cases illustrate the format of a correct answer.
{"Sequence": "RSACTYLAPHL [PLK3_Y615_S618P]", "Observed result": 0.71}
{"Sequence": "RPSGRYPVARR [SHANK3_Y1569]", "Observed result": 1.05}
{"Sequence": "FGLDHYQCDCT [PTGS1_Y54_R53H]", "Observed result": 0.68}

Report phosphorylation enrichment for each item below.
1. RNEAFYDTFST [EFCAB3_Y372_S370A]
2. RSSGPYGGGGQ [HNRNPA1_Y341]
3. PEVRRHVLPLN [RPE65_Y368_Y368H]
4. KVPCHYDDPGK [FOXG1_Y246_R244C]
5. EALDFYGEVRI [PTEN_Y155_T160I]

output:
1: 0.811; 2: 0.441; 3: 1.03; 4: 0.598; 5: 1.1

---

# Study system: Hck (UniProt P08631)
# Sequence (P08631 whole entry, looked up): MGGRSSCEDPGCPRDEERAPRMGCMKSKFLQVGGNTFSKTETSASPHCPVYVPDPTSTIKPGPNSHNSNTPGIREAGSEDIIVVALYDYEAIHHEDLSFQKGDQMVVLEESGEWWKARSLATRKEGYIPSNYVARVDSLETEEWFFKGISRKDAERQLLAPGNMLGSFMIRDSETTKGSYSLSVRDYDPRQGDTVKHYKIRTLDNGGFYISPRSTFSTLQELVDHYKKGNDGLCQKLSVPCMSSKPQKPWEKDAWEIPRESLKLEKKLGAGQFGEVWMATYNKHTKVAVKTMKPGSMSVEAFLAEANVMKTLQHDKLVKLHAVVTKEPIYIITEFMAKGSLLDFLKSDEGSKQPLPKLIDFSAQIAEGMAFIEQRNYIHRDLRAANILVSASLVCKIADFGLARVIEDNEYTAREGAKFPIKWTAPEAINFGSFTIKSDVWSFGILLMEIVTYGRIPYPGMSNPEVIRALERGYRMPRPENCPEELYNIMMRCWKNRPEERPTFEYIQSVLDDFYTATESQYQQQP
# Assay info: phosphorylation enrichment, bacterial display (enrichment ratio); higher = better substrate or ligand; peptides without Tyr show the background
// label = rule met if phosphorylation enrichment is not less than 0.7, otherwise rule not met

{"Sequence": "YCRHNYGVGES [HLA-DRB1_Y112_V115G]", "Answer label": "rule not met"}
{"Sequence": "FADIAYIYRHG [PAH_Y166_N167I]", "Answer label": "rule not met"}
{"Sequence": "LTGIAYSLPHW [SLC22A14_Y291]", "Answer label": "rule met"}
{"Sequence": "GDDLSYGDVPP [IRS1_Y151_E147D]", "Answer label": "rule not met"}
{"Sequence": "RFMVGYEMLAQ [GALT_Y339_K334R]", "Answer label": "rule met"}

# ---- query sequence ----
input: Is it the case that SVKVYYKKCWS [EPHA7_Y202] has phosphorylation enrichment reaching or exceeding 0.7?
output: rule not met

---

# Study system: FGFR3 (UniProt P22607)
# Assay info: phosphorylation enrichment, bacterial display (enrichment ratio); higher = better substrate or ligand; peptides without Tyr show the background
Can you tell me phosphorylation enrichment for the items I'm about to list?
One number for each entry.

These solved cases illustrate the format of a correct answer.
{"Sequence": "KHCEDYVFSFN [DSC1_Y846_C848F_YF]", "Study system": "FGFR3 (UniProt P22607)", "phosphorylation enrichment": 1.84}
{"Sequence": "LADMNYVHCDL [EPHB2_Y742_R745C]", "Study system": "FGFR3 (UniProt P22607)", "phosphorylation enrichment": 1.09}
{"Sequence": "QAINEYEKWLE [MAP9_Y603]", "Study system": "FGFR3 (UniProt P22607)", "phosphorylation enrichment": 1.39}
{"Sequence": "ALAHKCHGGGG [HBB_Y146_Y146C]", "Study system": "FGFR3 (UniProt P22607)", "phosphorylation enrichment": 0.546}
{"Sequence": "AEEEIYGIFGA [SRCtide_2014]", "Study system": "FGFR3 (UniProt P22607)", "phosphorylation enrichment": 0.89}

Report phosphorylation enrichment for each item below.
1. SFPSTYRYERG [INPPL1_Y661_P659S]
2. NPQKSYFIRLF [WAS_Y83_YF]
3. NLSVRYDSSLK [ABCC8_Y1353]
4. HIPFRYPKEFQ [IDS_Y234]
5. RETLTYAQAQG [BRD1_Y33_R38G]

output:
1: 0.449; 2: 0.754; 3: 0.633; 4: 0.66; 5: 0.149

Report phosphorylation enrichment for each item below.
1. KAEQLYIGVTV [EFHC2_Y509_E507Q]
2. GLGGGCGGASG [KRT8_Y54_Y54C]
3. VSGIPYGQPKQ [NEU1_Y251]
4. LSFSEYASVQV [SIRPA_Y496_P491L]
5. SLGSPYGQPPR [PDLIM4_Y137]
6. SVKVYYKKCWS [EPHA7_Y202]
7. FADIAYIYRHG [PAH_Y166_N167I]

output:
2.88
0.544
0.437
2.1
0.526
0.733
0.583

Report phosphorylation enrichment for each item below.
1. DFDNLYYWDQD [ERBB2_Y1221_A1216D]
2. SVMAEYGLFAA [VSX2_Y219_G223A_YF]
3. SRIWVYNHFRC [BRCA2_Y2621_W2626C_YF]

output:
9.13
0.564
0.937
